All values here come from the supplement of paper PMC9112550.

# Test system: Escherichia coli TOP10
# experimental-protocol: shrunken log2 fold change of peptide-encoding DNA abundance (4.5 h post-induction vs induction); higher = less antimicrobial activity (less host growth inhibition)
# study-conditions: time post-induction: 4.5 h; library: site-saturation at positions 5, 18, 19, 20
If the reported shrunken log2 fold change equals or exceeds -0.05, assign condition met. If not, assign condition not met.

RRIRCRPPRLPRPRPRPTWLPRP; condition not met
RRIRFRPPRLPRPRPRPAWNPRP; condition met
RRIRIRPPRLPRPRPRPLCFPRP; condition not met
RRIRMRPPRLPRPRPRPGNHPRP; condition not met
RRIRPRPPRLPRPRPRPTGNPRP; condition met
RRIRVRPPRLPRPRPRPNDSPRP; condition not met
RRIRWRPPRLPRPRPRPMFVPRP; condition not met
RRIRCRPPRLPRPRPRPAIQPRP; condition not met
RRIRIRPPRLPRPRPRPQCGPRP; condition met

###

# Tested on: Escherichia coli TOP10
# experimental-protocol: shrunken log2 fold change of peptide-encoding DNA abundance (4.5 h post-induction vs induction); higher = less antimicrobial activity (less host growth inhibition)
# study-conditions: time post-induction: 4.5 h; library: site-saturation at positions 5, 18, 19, 20
Mark Criterion not met for shrunken log2 fold change values under -0.02, and Criterion met for everything at or above.

RRIRIRPPRLPRPRPRPMIWPRP; Criterion not met
RRIRYRPPRLPRPRPRPKSFPRP; Criterion met
RRIRPRPPRLPRPRPRPVHTPRP; Criterion not met
RRIRNRPPRLPRPRPRPCKHPRP; Criterion not met
RRIRGRPPRLPRPRPRPYIQPRP; Criterion not met

###

# System: Escherichia coli TOP10;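 note: peptides expressed intracellularly from a pBAD plasmid library in pooled LB shake-flask culture, induced with 0.3% L-arabinose, DNA abundance read by NGS, three biological replicates, DESeq2 with apeglm shrinkage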
# experimental-protocol: shrunken log2 fold change of peptide-encoding DNA abundance (4.5 h post-induction vs induction); higher = less antimicrobial activity (less host growth inhibition)
# study-conditions: time post-induction: 4.5 h; library: site-saturation at positions 5, 18, 19, 20
Kind request: treat -0.03 as inclusive, so shrunken log2 fold change at -0.03 or higher is true, anything lower is false.

RRIRWRPPRLPRPRPRPGTQPRP; true
RRIRHRPPRLPRPRPRPRTGPRP; false
RRIRTRPPRLPRPRPRPCLIPRP; false
RRIRERPPRLPRPRPRPNMWPRP; false
RRIRHRPPRLPRPRPRPRGIPRP; false
RRIRKRPPRLPRPRPRPDAAPRP; true
